Overview of reported IC50 across a group of compounds:
target: DGKα (Homo sapiens (Human), UniProt P23743)
Sequence (P23743 whole entry): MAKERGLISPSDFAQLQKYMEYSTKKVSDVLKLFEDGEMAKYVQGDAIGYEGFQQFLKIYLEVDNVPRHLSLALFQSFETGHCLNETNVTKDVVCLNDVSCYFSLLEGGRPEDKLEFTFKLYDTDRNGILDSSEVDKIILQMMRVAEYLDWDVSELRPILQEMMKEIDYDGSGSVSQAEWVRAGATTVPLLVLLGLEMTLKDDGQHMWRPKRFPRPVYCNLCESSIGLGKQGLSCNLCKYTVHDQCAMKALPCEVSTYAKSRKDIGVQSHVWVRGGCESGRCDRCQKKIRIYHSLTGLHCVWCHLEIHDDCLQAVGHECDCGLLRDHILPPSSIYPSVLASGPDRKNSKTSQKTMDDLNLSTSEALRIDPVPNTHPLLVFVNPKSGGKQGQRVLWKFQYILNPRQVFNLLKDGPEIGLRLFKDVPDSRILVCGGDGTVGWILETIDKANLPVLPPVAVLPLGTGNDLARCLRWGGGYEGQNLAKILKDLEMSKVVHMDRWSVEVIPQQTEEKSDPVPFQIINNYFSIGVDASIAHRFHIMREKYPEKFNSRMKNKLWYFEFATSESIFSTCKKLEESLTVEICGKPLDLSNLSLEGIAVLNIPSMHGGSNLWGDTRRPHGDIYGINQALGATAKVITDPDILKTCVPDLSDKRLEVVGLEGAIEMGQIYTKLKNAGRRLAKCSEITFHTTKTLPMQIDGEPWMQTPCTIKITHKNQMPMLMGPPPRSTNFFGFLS

CC[C@H]1CN(C(C)c2ncc(C(F)(F)F)cc2F)[C@H](CC)CN1c1cc(=O)n(C)c2cn(CC#N)nc12 (single isomer, unassigned) [Compound A354b]
130 nM

For the record CC#CCn1cc2c(n1)c(N1C[C@@H](CC)N(C(C)c3cnc4ccccc4n3)C[C@@H]1C)cc(=O)n2C (single isomer, unassigned) [Compound A394a] , what value of IC50 is listed for DGKα (Homo sapiens (Human), UniProt P23743)? 454 nM

Return IC50 measured with DGKα (Homo sapiens (Human), UniProt P23743) given this compound: CC[C@H]1CN(C(C)c2ccccc2C(F)(F)F)[C@H](CC)CN1c1cc(=O)n(C)c2cn(CC#N)nc12 (single isomer, unassigned) [Compound A197b] > 10000 nM

Give IC50 (DGKα (Homo sapiens (Human), UniProt P23743)) of the following compound: CC[C@H]1CN(C(C)c2ccc(C(F)F)cn2)[C@H](CC)CN1c1cc(=O)n(C)c2cn(CC#N)nc12 (single isomer, unassigned) [Compound A347b] 8 nM

Record CC[C@H]1CN(C(C)c2ccc3cccnc3c2)[C@H](CC)CN1c1cc(=O)n(C)c2cn(CC#N)nc12 (stereo partly shown) [Compound A61] : what is its IC50 with DGKα (Homo sapiens (Human), UniProt P23743)? 177 nM

Which measured IC50 belongs to CC[C@H]1CN(C(C)c2ccc(F)cc2OC(F)F)[C@H](CC)CN1c1cc(=O)n(C)c2cn(CC#N)nc12 (single isomer, unassigned) [Compound A171b] , tested on DGKα (Homo sapiens (Human), UniProt P23743)? > 10000 nM

API: value(readout=IC50, system=DGKα (Homo sapiens (Human), UniProt P23743)) for record CC[C@@H]1CN(c2cc(=O)n(C)c3cn(CC#N)nc23)[C@@H](C)CN1C(C)c1ccc(C(F)(F)F)cc1F (single isomer, unassigned) [Compound A202a] 700 nM

Param readout= IC50; system= DGKα (Homo sapiens (Human), UniProt P23743); entry= COC[C@H]1CN(C(C)c2ccc3nccnc3c2)[C@H](C)CN1c1cc(=O)n(C)c2cn(CC#N)nc12 (stereo partly shown) [Compound A143] ; returns value. > 10000 nM

* * *

// values below are IC50; system is DGKα (Homo sapiens (Human))

The cases that follow already have their IC50 on record.
CC[C@H]1CN([C@H](C)c2ncccc2OC)[C@H](CC)CN1c1cc(=O)n(C)c2cn(CC#N)nc12 (single isomer, unassigned) [Compound A92b]
> 10 µM
CCC(c1ccc(F)cc1C(F)(F)F)N1C[C@H](C)N(c2cc(=O)n(C)c3cn(CC#N)nc23)C[C@H]1C (some centres unmarked) [Compound A256]
> 10 µM
CC[C@H]1CN(C(C)c2ccc(C(F)(F)F)nc2)[C@H](CC)CN1c1cc(=O)n(C)c2cn(CC#N)nc12 (single isomer, unassigned) [Compound A135b]
0.428 µM

So what IC50 did C[C@@H]1CN(c2nc(=O)n(C)c3c(Cl)n(CC#N)nc23)[C@@H](C)CN1[C@H](C)c1ccc2nccnc2c1 [Compound A245] get with DGKα (Homo sapiens (Human))? > 10 µM

Request - read-out IC50 | tested on DGKα (Homo sapiens (Human)) | molecule Cc1cnc2cc([C@H](C)N3C[C@H](C)N(c4cc(=O)n(C)c5cn(CC#N)nc45)C[C@H]3C)ccc2n1 (single isomer, unassigned) [Compound A269b] > 10 µM

* * *

# collection of pIC50 values tested on DGKα (Homo sapiens (Human))
pIC50: −log10 of the molar value.

CC[C@H]1CN(C(C)c2cccnc2C(F)(F)F)[C@H](CC)CN1c1cc(=O)n(C)c2cn(CC#N)nc12 (stereo partly drawn)
< 5.00

Quick check: pIC50 of C[C@@H](c1ccc2nccnc2c1)N1CCN(c2cc(=O)n(C)c3cn(CC#N)nc23)CC1C(N)=O (single isomer, unassigned) [Compound A198a] ? < 5.00

What does the data say about its pIC50? Entry: CC[C@H]1CN(C(C)c2ccc3nccnc3c2)[C@H](C)CN1c1cc(=O)n(C)c2cn(CC#N)nc12 (single isomer, unassigned) [Compound A98b] < 5.00

* * *

biological target: DGKζ (Homo sapiens (Human)); assay: Biochemical DGK IC50 assay, DGKζ ADP-Glo assay; conditions: 0.5 nM enzyme, 140 μM ATP, 80 μM DAG; read-out: DGKζ ADP-Glo assay IC50
Sequence (Q13574 other isoform, or with tags, fused parts or gaps): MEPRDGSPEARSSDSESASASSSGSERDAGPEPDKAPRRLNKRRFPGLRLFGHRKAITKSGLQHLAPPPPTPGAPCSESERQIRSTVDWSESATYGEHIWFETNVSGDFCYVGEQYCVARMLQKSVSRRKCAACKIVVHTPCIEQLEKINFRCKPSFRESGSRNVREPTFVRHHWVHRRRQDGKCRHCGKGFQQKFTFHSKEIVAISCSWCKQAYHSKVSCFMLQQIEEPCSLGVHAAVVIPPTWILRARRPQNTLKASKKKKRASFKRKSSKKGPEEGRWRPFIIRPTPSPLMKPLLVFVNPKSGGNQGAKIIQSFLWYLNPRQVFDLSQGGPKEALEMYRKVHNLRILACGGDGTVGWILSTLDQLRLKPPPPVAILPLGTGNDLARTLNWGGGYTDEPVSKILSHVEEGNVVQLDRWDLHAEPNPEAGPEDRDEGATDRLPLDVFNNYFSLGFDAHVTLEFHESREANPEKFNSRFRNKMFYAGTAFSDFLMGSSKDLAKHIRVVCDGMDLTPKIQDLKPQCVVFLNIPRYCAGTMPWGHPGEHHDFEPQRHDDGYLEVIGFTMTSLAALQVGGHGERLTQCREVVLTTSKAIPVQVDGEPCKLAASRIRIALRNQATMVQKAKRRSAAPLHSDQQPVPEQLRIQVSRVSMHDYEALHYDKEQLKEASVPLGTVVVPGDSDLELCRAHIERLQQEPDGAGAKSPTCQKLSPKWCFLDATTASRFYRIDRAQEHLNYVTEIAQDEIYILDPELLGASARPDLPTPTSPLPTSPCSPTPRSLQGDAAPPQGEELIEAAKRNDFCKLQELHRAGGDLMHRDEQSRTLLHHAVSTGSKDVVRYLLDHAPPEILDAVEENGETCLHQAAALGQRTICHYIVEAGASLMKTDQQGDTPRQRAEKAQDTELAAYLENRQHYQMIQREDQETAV
recorded_endpoint: IC50 (µM)

CC[C@H]1CN(C(C)c2ccc(F)cc2C(F)(F)F)[C@H](CC)CN1c1cc(=O)n(C)c2c[nH]nc12 (single isomer, unassigned) [Compound A275a]
7.11
COc1ccc(C(C)N2C[C@H](C)N(c3cc(=O)n(C)c4cn(CC#N)nc34)C[C@H]2C)cc1 (some centres unmarked) [Compound A38]
0.61

A: CC[C@H]1CN(C(C)c2nc3cccc(C(F)(F)F)c3n2CC)[C@H](CC)CN1c1cc(=O)n(C)c2cn(CC#N)nc12 (single isomer, unassigned) [Compound A230b]
B: CC[C@H]1CN(C(C)c2cnc3ccccc3n2)[C@H](CC)CN1c1cc(=O)n(C)c2cn(CC#N)nc12 (single isomer, unassigned) [Compound A155a]
Could you determine which record has the numerically smaller IC50? Candidates: A and B API: response body contains the label of the selected item. A

* * *

molecular target: DGKζ (Homo sapiens (Human)); assay: Biochemical DGK IC50 assay, DGKζ ADP-Glo assay; conditions: 0.5 nM enzyme, 140 μM ATP, 80 μM DAG; read-out: DGKζ ADP-Glo assay IC50
pIC50: −log10 of the molar value.
recorded_endpoint: pIC50

Worked set:
CC(c1ccc2nccnc2c1)N1C[C@H](C)N(c2nc(=O)n(C)c3cn(CC#N)nc23)C[C@H]1C (stereo partly shown) [Compound A154]
6.98
C#CCn1cc2c(n1)c(N1C[C@@H](C)N(C(C)c3ccc4nccnc4c3)C[C@@H]1C)cc(=O)n2C (stereo partly shown)
6.51
CC(OC(F)F)c1cc(F)ccc1C(C)N1C[C@H](C)N(c2cc(=O)n(C)c3cn(CC#N)nc23)C[C@H]1C (stereo partly shown)
6.84

A: COC[C@@H]1CN(c2cc(=O)n(C)c3cn(CC#N)nc23)[C@@H](C)CN1C(C)c1ccc2nccnc2c1 (stereo partly shown)
B: CCO[C@@H]1CN(c2cc(=O)n(C)c3cn(CC#N)nc23)CC[C@H]1Oc1cccc(C(F)(F)F)c1
// pick min by pIC50: A , B Answer by quoting the chosen item's label. B

* * *

target: DGKα (Homo sapiens (Human))
recorded_endpoint: IC50 (µM)

CC[C@H]1CN(C(C)c2ccc(F)cn2)[C@H](CC)CN1c1cc(=O)n(C)c2cn(CC#N)nc12 (single isomer, unassigned) [Compound A74a]
0.0022
CC[C@H]1CN(C(C)c2cnc(C)c(C)n2)[C@H](CC)CN1c1cc(=O)n(C)c2cn(CC#N)nc12 (single isomer, unassigned) [Compound A355a]
10.9
CC[C@H]1CN(C(C)c2ccc(OC)cc2)[C@H](CC)CN1c1cc(=O)n(C)c2cn(CC#N)nc12 (stereo partly drawn) [Compound A377]
0.094

I: C[C@@H]1CN(c2cc(=O)n(C)c3cn(CC#N)nc23)[C@@H](C)CN1[C@@H](C)c1ccc2c(c1)OC(C)(C)CO2 [Compound A46b]
II: [2H]C([2H])([2H])c1cnc2ccc(C(C)N3C[C@H](C)N(c4cc(=O)n(C)c5cn(CC#N)nc45)C[C@H]3C)cc2n1 (single isomer, unassigned) [Compound A313b]
Identify the entry with the smaller IC50: I or II . Please identify the chosen entry by its label. I

P: CC[C@H]1CN(C(C)c2ccc(C(F)(F)F)nc2)[C@H](CC)CN1c1cc(=O)n(C)c2cn(CC#N)nc12 (single isomer, unassigned) [Compound A135a]
Q: CC[C@H]1CN(C(C)c2ccc(C(F)(F)F)cc2F)[C@H](CC)CN1c1cc(=O)n(C)c2cn(CC#N)nc12 (single isomer, unassigned) [Compound A69b]
R: CC[C@H]1CN(C(C)c2ccc(F)cc2OC(C)C)[C@H](CC)CN1c1cc(=O)n(C)c2cn(CC#N)nc12 (stereo partly drawn) [Compound A142]
S: CC[C@H]1CN(C(C)c2cnn(CC)c2C(F)(F)F)[C@H](CC)CN1c1cc(=O)n(C)c2cn(CC#N)nc12 (single isomer, unassigned) [Compound A119b]
Put the items in sequence by IC50, from largest down. Arrange the labels as the request states and list them. R, S, Q, P
(R: 6.58 µM, S: 4.56 µM, Q: 3 µM, P: 0.398 µM)

* * *

biological target: DGKα (Homo sapiens (Human), UniProt P23743)
recorded_endpoint: IC50 (µM)

CC[C@H]1CN(C(C)c2cnn(C)c2C(F)(F)F)[C@H](CC)CN1c1cc(=O)n(C)c2cn(CC#N)nc12 (some centres unmarked)
6.98
CC[C@H]1CN(C(C)c2cnc(Cl)cc2C(F)(F)F)[C@H](CC)CN1c1cc(=O)n(C)c2cn(CC#N)nc12 (some centres unmarked)
8.43
CC[C@H]1CN(C(C)c2ccc(OC(C)C)cn2)[C@H](CC)CN1c1cc(=O)n(C)c2cn(CC#N)nc12 (some centres unmarked)
0.082
CC[C@H]1CN(C(C)c2ccc(OCC3COC3)cc2)[C@H](CC)CN1c1cc(=O)n(C)c2cn(CC#N)nc12 (some centres unmarked)
0.294
CC[C@H]1CN(C(C)c2ccc(C)nc2)[C@H](CC)CN1c1cc(=O)n(C)c2cn(CC#N)nc12 (single isomer, unassigned) [Compound A349b]
1.58
CC[C@H]1CN(C(C)c2ccc(C(F)(F)F)cc2F)[C@H](CC)CN1c1cc(=O)n(C)c2cn(CC#N)nc12 (single isomer, unassigned) [Compound A69a]
0.13
CC[C@H]1CN(C(C)c2cnn(C)c2C(F)F)[C@H](CC)CN1c1cc(=O)n(C)c2cn(CC#N)nc12 (some centres unmarked)
7.33
CC[C@H]1CN(C(C)c2ccc(C(F)(F)F)cc2)[C@H](CC)CN1c1cc(=O)n(C)c2cn(CC#N)nc12 (single isomer, unassigned) [Compound A103b]
0.809

A: CC#CCn1cc2c(n1)c(N1C[C@@H](CC)N(C(C)c3ccc4c(c3)OC(F)(F)O4)C[C@@H]1C)cc(=O)n2C (single isomer, unassigned) [Compound A392b]
B: CC[C@@H]1CN(c2cc(=O)n(C)c3cn(CC#N)nc23)[C@@H](CC)CN1Cc1ccc(OC(F)(F)F)cc1
C: CC[C@H]1CN(C(C)c2ccc(F)cc2OC)[C@H](CC)CN1c1cc(=O)n(C)c2cn(CC#N)nc12 (single isomer, unassigned) [Compound A71b]
D: Cc1cnc2ccc([C@H](C)N3C[C@H](C)N(c4cc(=O)[nH]c5cn(CC#N)nc45)C[C@H]3C)cc2n1
Ranking field: IC50; order: falling. Answer by listing the labels in the order asked for. D, C, A, B
(D: 88.3 µM, C: 40 µM, A: 1.07 µM, B: 0.0092 µM)
